System: MS2 coat protein
Assay: apparent KD of MS2 coat protein; higher = weaker reporter binding
Conditions: Eterna round: R107; input ligand: tryptophan 2.4 mM

primary sequence	endpoint unit	apparent KD of MS2 coat protein
GGGAUAUAGGCGGCCGCCACUGAUUUUCAUAUAUAUAUAACAUGAGGAUCACCCAUGUAGAUAUACAGGACCGGGCCUAUAUUUU [aaaD]	nM	13.5
UGAUAUGUGGGAAGGAGCGCAUACUUCACAUGAGGAUCACCCAUGUCAAGACGUGAGUCAGUGCAGGUAGGUCGCCUAGUUAUGA [Same State - Arginine B (Freestyle 19)]	nM	85.3
UGACAUUGCUCAGAUACCAGACAUGAGCAUCAGCCAUGUACCAAGAGUACAUGUUAAAAUGUCCCUUGGCAGCUGAGCAAUGUCU [Mod of Eli's TheoBX5 #AlternateMS2 v2]	nM	60.1
GGGCGCUAUCCCGCGAGGGAUAGCGUUCGGCGAGGACCGGUACGGCCGCCACUCGAACGAGUGGGUACAUGAGGAUCACCCAUGU [Faa]	nM	30.6
CUCUCAUGAACAUGAGGAUCACCCAUGUAACGAGGACCGGUACGGCCGCCACUCGAACGUGGAAACCAAUCGAGUGAGGUGGGAG [Tryp A Ex t5b]	nM	352
UGGGUACAUGAGGAUCACCCAUGUACUGAAGGAGCGAGAAUUAUCUCAGGUAGGUCGCAGACAUGAGGAUCACCCAUGUAGUGGG [Exclusion Arginine A GF 13]	nM	17.7
GGAUAGGACACGGCCGCCACUACCUAGGAUACUAGCAACAUUUGGGUGCACGAGGAUCACCCGUGUAGGACCGGGUGUCCUAUCG	nM	291
GCGGACAUGAGGAUCACCCAUGUAAAUCCUCGAGGACCGGUACGGCCGCCACUCGAACGAGUGGCGCGCGCGCGCGCGCGCGCGC [aAa]	nM	45.2
ACGAACGAUAGUGAUACCAGACGAACAUGAGGAUCACCCAUGUUAUACACAUGGUUUAUUGUCCCUUGGCAGCACUUUAAGUUCG [JR_ExcTheophyB_Sub006]	nM	146
GUACAUGAGGAUCACCCAUGUAUAGUUGAAGGAGCGACCGGUGGGUCAGGUAGGUCGCAGCGCAUGGCGUCAACCCGUGUAUGCC [#1 Exclusion - Arginine A Attempt #27 (Inspired by Pi)]	nM	17.9
AAGGGUGAGUCUCUAAUCCGUUUGACGGAUACCAGCGAGAGAUAUCGCCCUUGGCAGCCGACGACAUGAGGAUCACCCAUGUAAA [Exclusion - Theophylline A]	nM	14
CUCCGAGGCUAUACUAUCCGCCUCAGUGAUACCAGAAUACCUAUAUUCCCUUGGCAGCAUCACAUGAGGAUCACCCAUGUGCCAU [SSTheo A #14]	nM	12.2
AUAUAUAUAUAGAAAUAUAUAUAUAUGUAACGAGGACCGGUACGGCCGCCACUCGUGCCGGUGAUAACAUGAGGAUCACCCAUGU [Ex_TrypA - Every engine approves!]	nM	20
GGACAUGCAGGAAGGAGCGACACAGCAGAAACUGCAAAUCCUCCACACGAGGAUCACCCGUGUCAGGUAGGUCGCCUGCAUGUCG [ArgXB 14 #Zipper #MS2Left #StaticStem #Blueprint]	nM	80.2
GUACAUGAGGAUCACCCAUGUAUAGUUGAAGGAGCGACCGGAGGGUCAGGUAGGUCGCAGCACAUGGCGUAAACCCGUGUAUGCC [#1 Exclusion - Arginine A Attempt #24 (Inspired by Pi)]	nM	23
CCGGCAUGUCGAAGGAGCGUCACAUGAGGAUCACCCAUGUACAUGAGGAUCACCCAUGUGUGACAGGUAGGUCGCGGCGGCCAGG [Exclusion Arginine B GF7]	nM	158
ACAUGAGGAUCACCCAUGUAAUGGCACGAUACCAGCUGAUCCCGUGGCCCUUGGCAGCGUCCGGUGUGGUCCGCCGGGUUGGAGC [DDDMULLIN]	nM	27
ACAUGAGGAUCACCCAUGUAAGGUCUUGAUACCAGACGCGAAGUAGUCCCUUGGCAGCAAAUACGUGAGGGUCGCACAUGUGUAA [mcnmullin]	nM	27.8
UUGGGUAUGCGAAGGAGCGGGAAAUAUAUAUAUAUAAUCCUAACAUGAGGAUCACCCAUGUCCCAGGUAGGUCGCGCAUAUUUGG [12.J]	nM	67.8
AAUAAGAGCUCGGAUACCAGCGAAAACAGGCACAUGAGGAUCACCCAUGUUAACGCACUGCGCCCUUGGCAGCCGCACGUGUGUC [theeternabot_sameState_MS2_Theo_B_39]	nM	22
AAUAAUAAGGCGGCCGCCACUAAACAUGAGGAUCACCCAUGUCUCGAGCGCAUACAUAAGGGAUGUAGGACCGGGCCAAUAAUAA [Exclusion - Tryptophan B (Freestyle 1)]	nM	21.3
GAUGAUAUUGCAGAUACCAGACACAUGAGGAUCACCCAUGUCGCUGGGUUACUGGGUCGUGUCCCUUGGCAGCUGCGAUAUCAUC [Belize]	nM	42.1
GGUGGCGUGACGGAUACCAGCCACCACCGAUAGACCACAUGAGGAUCACCCAUGUUGGGUGGCCCUUGGCAGCUGUCGUGCGGCG [#1 Same State - Theophylline B Attempt #17 (HarryS)]	nM	220
